All figures here come from a melting point compilation (Tetko et al.; mined from patent text by program, amines drawn as free bases though some values may be those of a salt).

READOUT: melting point

Please review the entries below; each comes with its answer.
CCc1nc(/C=C/c2cn(-c3ccccc3)nc2OCc2ccc(OCc3nc(-c4cccc(-c5nnn[nH]5)c4)oc3C)c(OC)c2)cs1 : 144 to 147 °C
O=S(=O)(CCCl)C(c1ccccc1)S(=O)(=O)CCCl : 106 to 108 °C
CCCCCCCCCCCCC1=C(O)C(=O)NC1=O : 108 to 109 °C

The measured melting point associated with CSCCN1C(=O)N2CCOC2(c2ccccc2)c2cc(Cl)ccc21 (stereo unspecified) reads 145 to 146 °C

The measured melting point associated with Cc1[nH]cnc1CSCCNC1=C([N+](=O)[O-])CCCN1 reads 206 °C

The measured melting point associated with CC(C)c1nc(C(C)C)c(CSc2c(F)c(F)cc(F)c2F)c(-c2ccc(F)cc2)c1CO reads 109 to 110 °C

---

READOUT: melting point

CC(C)(C)c1cc(CCc2ccccc2NC(=O)NCCCc2ccccc2)cc(C(C)(C)C)c1O : 161 to 162 °C
N#Cc1[nH]ccc1-c1ccccc1Cl : 114 to 115 °C
N#Cc1cccc(-c2nc(N3CCC(CC(=O)O)CC3)cc3cccnc23)c1 : 178 to 180 °C
COc1ccc(-n2nc(-c3ccccc3O)nc2-c2ccccc2O)cc1 : 179 to 181 °C
O=C1Cc2ccccc2C(=O)N1Cc1ccccc1F : 140 to 144 °C

The measured melting point associated with Cc1ccccc1C(=O)Nc1c(NC(=O)CCl)ccc2c1C(=O)c1ccccc1C2=O reads 179 to 180 °C

The measured melting point associated with CC(CS(=O)(=O)C(C)c1ccccc1)C(=O)O (stereo not given) reads 91 to 93 °C

The measured melting point associated with COC(=O)C1=C(O)c2cc(OC)ccc2S(=O)(=O)N1 reads 183 °C

The measured melting point associated with Cc1cccc(C)c1N1CC(C)N(c2c(C)cccc2C)C1=NCC(=O)O (stereo not given) reads 307 to 310 °C

The measured melting point associated with O=C(NCc1ccc(Cl)cc1)c1cn2c3c(cc(CN4CCOCC4)cc3c1=O)OC(CN1CCCCC1)C2 (stereo not given) reads 213 to 215 °C

---

READOUT: melting point

Fc1ccccc1-c1cccc2[nH]c3c(c12)CCN(Cc1ccccc1)CC3 : 157 to 159 °C

The measured melting point associated with CCOc1ccc(-c2cc(C3CCCCC3)nc(C3CCCCC3)c2)cc1 reads 106 °C

The measured melting point associated with CCn1c(=O)oc2cc([N+](=O)[O-])cc(F)c21 reads 121 to 122 °C

The measured melting point associated with CNS(=O)(=O)c1ccc(C2=C(c3ccccc3)C(=O)C(C)(C)O2)cc1Cl reads 136 to 137 °C

The measured melting point associated with Oc1c(C2(c3ccc4ccccc4c3O)c3ccccc3-c3ccccc32)ccc2ccccc12 reads 268 to 290 °C

The measured melting point associated with CN1C(N2CCCCC2)=C2N=c3cc(Cl)ccc3=C2Oc2ccccc21 reads 244 to 245 °C

The measured melting point associated with CCc1cccc2c1N(CC(=O)N1CC3CCC(CC3)C1)C(=O)C(NC(=O)Nc1cccc(-c3nnn[nH]3)c1)N=C2c1ccccc1F (centres undefined) reads 226 to 232 °C

The measured melting point associated with Cn1nc(S(N)(=O)=O)c2c(F)cccc21 reads 221 to 223 °C

The measured melting point associated with CCc1nc2c(N)nc3ccccc3c2n1CCCCS(C)(=O)=O reads 182 to 185 °C
